// provenance: paper PMC4336329

- testedTarget: human ether-à-go-go-related gene (hERG) potassium channel (human);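 note: peak tail current of the secondary pulse compared with the same well before compound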
- Sequence (Q12809 whole entry, looked up): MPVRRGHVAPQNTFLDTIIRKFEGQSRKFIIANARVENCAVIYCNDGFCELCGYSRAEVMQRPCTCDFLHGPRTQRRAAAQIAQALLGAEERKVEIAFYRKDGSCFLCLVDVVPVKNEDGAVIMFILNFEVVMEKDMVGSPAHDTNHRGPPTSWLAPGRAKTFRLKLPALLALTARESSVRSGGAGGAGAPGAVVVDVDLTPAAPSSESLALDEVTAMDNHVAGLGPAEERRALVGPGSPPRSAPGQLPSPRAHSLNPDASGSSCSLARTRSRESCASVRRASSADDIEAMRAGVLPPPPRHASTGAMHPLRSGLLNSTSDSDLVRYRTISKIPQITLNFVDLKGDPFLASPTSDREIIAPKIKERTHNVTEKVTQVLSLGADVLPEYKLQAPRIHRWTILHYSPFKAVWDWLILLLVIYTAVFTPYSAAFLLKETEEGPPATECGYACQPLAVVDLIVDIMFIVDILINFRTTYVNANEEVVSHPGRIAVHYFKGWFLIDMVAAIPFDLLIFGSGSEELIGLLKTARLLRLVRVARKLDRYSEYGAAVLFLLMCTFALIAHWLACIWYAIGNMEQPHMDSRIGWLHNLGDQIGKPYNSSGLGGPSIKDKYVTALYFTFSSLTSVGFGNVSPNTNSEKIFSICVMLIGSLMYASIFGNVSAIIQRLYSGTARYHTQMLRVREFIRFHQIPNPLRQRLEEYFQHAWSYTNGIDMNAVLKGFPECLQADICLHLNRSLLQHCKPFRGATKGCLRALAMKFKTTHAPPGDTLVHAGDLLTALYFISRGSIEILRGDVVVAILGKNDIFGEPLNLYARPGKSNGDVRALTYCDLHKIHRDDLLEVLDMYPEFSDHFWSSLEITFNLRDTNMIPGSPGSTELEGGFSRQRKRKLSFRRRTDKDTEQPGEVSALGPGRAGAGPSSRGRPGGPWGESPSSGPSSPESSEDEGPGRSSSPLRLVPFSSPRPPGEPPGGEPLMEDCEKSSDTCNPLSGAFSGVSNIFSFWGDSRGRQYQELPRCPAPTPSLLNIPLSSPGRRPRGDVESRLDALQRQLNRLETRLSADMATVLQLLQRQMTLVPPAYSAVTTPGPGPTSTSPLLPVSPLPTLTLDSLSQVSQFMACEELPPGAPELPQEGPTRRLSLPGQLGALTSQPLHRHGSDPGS
- testSummary: primary screen, population patch clamp on CHO cells stably expressing hERG; higher = less effect of the substance
Out of some 310,000 compounds screened, about 14,000 (4.5%) showed an effect of 50% or more. Effects have a minus sign here. What follows is part of a selection rich in strong results, with near analogues and random picks from the rest.
observedProperty: hERG current change (%, negative = inhibition) at 10uM (%)
Quick reminder: number only, in %, skip the unit.

Fill in: hERG current change (%, negative = inhibition) at 10uM of COC(=O)c1sccc1NC(=O)Nc1ccccc1C is ___
9.22

Any idea what hERG current change (%, negative = inhibition) at 10uM was measured for CCc1cc2c(=O)[nH]c(Cc3ccc(OC)cc3)nc2s1 ?
2.16

Return reported hERG current change (%, negative = inhibition) at 10uM; argument: C#C[C@]1(O)CC[C@H]2[C@@H]3CCC4=Cc5oncc5C[C@]4(C)[C@H]3CC[C@@]21C
-15.3

# query: hERG current change (%, negative = inhibition) at 10uM of entry COC(=O)N1CCN(c2ccc(OC)cc2)CC1
4.33

Look at this compound and give its reported hERG current change (%, negative = inhibition) at 10uM. Cc1c(C(=O)N2CCN(c3ccccc3)CC2)sc2ncnc(N3CCN(c4ccccn4)CC3)c12
-35.1

What measured hERG current change (%, negative = inhibition) at 10uM goes with CCOc1cc([C@@H]2C[C@H]3CN(c4ccccc4)C(=O)[C@]34CCCN24)ccc1OC ?
-10.4

Which hERG current change (%, negative = inhibition) at 10uM is reported for this compound? C/C(=C/c1ccccc1)C(=O)N1CCN(c2ccc(F)cc2)CC1
-42.2

# lookup: hERG current change (%, negative = inhibition) at 10uM of CCOCCn1c(N2CCCC2)nc2c1c(=O)[nH]c(=O)n2C
15.1

For O=c1[nH]c(/C=C/c2ccc3c(c2)OCO3)c([N+](=O)[O-])c(=O)[nH]1 , what is its reported hERG current change (%, negative = inhibition) at 10uM?
45.8

// lookup hERG current change (%, negative = inhibition) at 10uM for Cc1cc(C)cc(N(CCC#N)C(=O)COC(=O)CN2C(=O)NC(C)(C)C2=O)c1
19.6

Given O=c1ccn(Cc2ccccc2Cl)cc1 , state its recorded hERG current change (%, negative = inhibition) at 10uM.
8.8

What value of hERG current change (%, negative = inhibition) at 10uM has been recorded for this entry: COc1ccc(-c2nnc(SCC(=O)NCC3CCCO3)n2C)cc1 (stereo not shown)
9.8

So what does the record say about hERG current change (%, negative = inhibition) at 10uM for Cc1ccc(-n2c(SCC(=O)NCc3cccs3)nnc2-c2ccoc2C)cc1 ?
-74.8

Name the recorded hERG current change (%, negative = inhibition) at 10uM for COc1ccc(N2CCN(C(C)=C3C(=O)c4ccccc4C3=O)CC2)cc1 .
-53.3

Value lookup for hERG current change (%, negative = inhibition) at 10uM; key = COc1ccccc1N1CCN(C(=O)c2sc3ncnc(N4CCN(c5ccccn5)CC4)c3c2C)CC1
-18.8

Consider the compound CC(Sc1nc(N)cc(=O)[nH]1)C(=O)Nc1sc2c(c1C#N)CCCC2 (stereo not shown) and give its measured hERG current change (%, negative = inhibition) at 10uM.
1.55

// query hERG current change (%, negative = inhibition) at 10uM value for entry COc1ccc(CC(=O)NCC2CCCN(Cc3ccc(OC(F)(F)F)cc3)C2)cc1 (stereo not shown)
-63.7

# hERG current change (%, negative = inhibition) at 10uM lookup, item O=C(Nc1cc(-c2nn(CC(=O)N3CCCCC3)c(=O)c3ccccc23)ccc1N1CCOCC1)c1ccc(Cl)cc1
-52.6

Name the reported hERG current change (%, negative = inhibition) at 10uM value associated with the compound CC(C)(C)c1ccc(C(=O)N2CCN(CCNC(=O)C(=O)NCc3ccccc3)CC2)cc1
-57
